Assay: label from the status in PepcDB records

ORDERED RESIDUES	protein production
MGRYKDETPAVRVYTVCDESRYMIVRNVPALGCGDDLMRLFMTYGEVEEFAKRKLDESSFLGNRLQISYAPEYENVNDTKDKLESRRKEVLARLNPQKEKSTSQVTKLAGPALTQTDNVSSQRREMEYQFHRGNAPVTRVSSDQEYFASSSMNQTVKTVREKLNKTREENISSLSHCKQIEESGNQKRLQPSSQTQPEESGNQKRLQPSSQIQPDLKRTRVDNRRRI	failed
MTRSEQNPVLFLAPDNVLWLLYTAQKSGNQDTAIVRYRQSTDLGATWGEIGTLLDQPGTFIRQPITVLENGDWLLPVFYCRVQPGEKWVGNDDDSAVKISSDQGKTWREYPVPNSTGCVHMNITPLQDGTLLALYRSRWADFIYQSRSTDGGKTWSEPVATDLPNNNSSIQVTTLKNGHLALVFNHMSAADATDRRLSLYDEIEDEEDKASGAKMPEVQAGDRSAFWGAPRAPMTLAISEDGGKSWPYQRNIEVGDGYCMTNNSTEKLNREFSYPSVKQAPDGKLHVAFTYFRQAIKHVVVSEEWVKAGLEHHHHHH	failed
MTIPTSYLNHTDAEAARKARATYRDGLVAPTSGIAPGFTQANMIVLPRDWAFDFLLYAQRNPKPCPVLDVSDPGSPTTLLAPGADLRTDLPLYRIWRDGKLAEETADATSAWAERDDLVAFLIGCSFTFETPMVEAGIEIRHMTDKSNVPMYLTNRPCRPAGRLKGNMVVSMRPIPASRVADAATISGRFPAVHGAPVHVGAPEQIGISDLSKPDFGDAVRIEPGEVPVFWACGVTPQAAVMASGVPFAITHAPGHMFITDIPDTAYHALEHHHHHH	not failed
MVEIIPVSTTLELRAADESHVPALHQLVLKNKAWLQQSLDWPQYVTSQEETRKHVQGNILLHQRGYAKMYLIFCQNEMAGVLSFNAIEPINKAAYIGYWLDESFQGQGIMSQSLQALMTHYARRGDIRRFVIKCRVDNQASNAVARRNHFTLEGCMKQAEYLNGDYHDVNMYARIIDAD	not failed
MRERTEARRRRIEEVLRRRQPDLTVLLENVHKPHNLSAILRTCDAVGVLEAHAVNPTGGVPTFNETSGGSHKWVYLRVHPDLHEAFRFLKERGFTVYATALREDARDFREVDYTKPTAVLFGAEKWGVSEEALALADGAIKIPMLGMVQSLNVSVAAAVILFEAQRQRLKAGLYDRPRLDPELYQKVLADWLRK	not failed
CMPYRVEIFDTSHHSSSQCVGGMVVYENNAFQKNSYRRYHLKGSDEYTQMSELLTRRALDFAKEPPPNLWVIDGGRAQLNIALEILKSSGSFVEVIAISKEKRDSKAYRSKGGAKDIIHTPSDTFKLLPSDKRLQWVQKLRDESHRYAINFHRSTKLKNMKQI	failed
